Target or test system: Epidermal growth factor receptor (Homo sapiens)
Experiment: EGFR binders on small-molecule microarrays, primary screen, biochemical, small-molecule microarray, 635 nm fluorescence (AID 1104);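 note: score merges 667 nm emission intensity with spot signal to noise over triplicate slides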
Applied conditions: EGFR binding, higher = more signal
composite z-score of 0.3 or higher: TRUE. Under 0.3: FALSE.

{"Molecule": "CO[C@H]1O[C@H](CO)[C@@H](OC(=O)c2ccc(Br)cc2)[C@@H]2OC(=O)[C@H](Cc3ccccc3)C/C=C/C[C@@H](Cc3ccccc3)C(=O)O[C@@H]12", "Class label": "FALSE"}
{"Molecule": "C=CCC(OC(C)=O)[C@@H]1[C@@H](N(Cc2ccc(-c3cccc(C(F)(F)F)c3)o2)C(=O)Cc2ccc(OC)cc2)c2cc(OCCCO)ccc2N1C(=O)Cc1ccc2ccccc2c1 (some centres not stated)", "Class label": "FALSE"}
{"Molecule": "CS(=O)(=O)CCOC(=O)C1=CC(CCCO)=CC(C2CC2)N(Cc2cccc(OC(F)(F)F)c2)C=C1C(=O)OCCS(C)(=O)=O (configuration not stated)", "Class label": "FALSE"}
{"Molecule": "COC(=O)[C@@]1(Cc2ccc(F)cc2)[C@H]2c3cc(C(=O)N4CCCC4)n(CC4CC4)c3C[C@H]2CN1C(=O)c1ccccc1", "Class label": "TRUE"}
{"Molecule": "COc1ccc([Si](C)(C)[C@H]2[C@H](CCO)O[C@@]3(C(=O)N(Cc4ccccc4)c4ccc(N5CCOC5=O)cc43)[C@@H]2C)cc1", "Class label": "TRUE"}
{"Molecule": "C=C[C@@H](C)[C@H](O)c1ccc(OCCO)cc1", "Class label": "FALSE"}
